biological target: T1, GST-Shh (recombinant GST-fused human Sonic Hedgehog) (human, UniProt Q15465 24-197); test: plate immunoassay: immobilized GST-Shh, FLAG-tagged peptide titrated, HRP anti-FLAG antibody, A450
T1 construct: Expressed in E. coli BL21(DE3), Ni-NTA purified, immobilized on microtiter plates; also called GST-fused Shh; not shown: glutathione-S-transferase (GST) containing a poly-histidine tag, from expression vector pET42b (Novagen); N-terminal fus
reported metric: pKd
Note on units: pKd is unitless, being -log10 of a concentration expressed in mol/L.

Consider MDYKDDDDKGSGSTLDDMEEMDGLSD (also called linear L2-derived peptide) [FLAG-HL2-pep] . Its measured pKd is 4.70

The measured values listed here are drawn from patent US20210115087A1.
